>  <COMPOUND>
C#C[C@]1(O)CC[C@H]2[C@@H]3CCc4cc(O)ccc4[C@H]3CC[C@@]21C [Ethinyl Estradiol]

>  <melting point [°C]>
183

$$$$
>  <COMPOUND>
ClCc1ccccc1CCl [a,a'-dichloro-o-xylene]

>  <melting point [°C]>
56

$$$$
>  <COMPOUND>
CCC(=O)OC(Cc1ccccc1)(c1ccccc1)C(C)CN(C)C (configuration not stated) [propoxyphene]

>  <melting point [°C]>
75

$$$$
>  <COMPOUND>
CC[C@H](C)C(=O)O[C@H]1C[C@@H](C)C=C2C=C[C@H](C)[C@H](CC[C@@H]3C[C@@H](O)CC(=O)O3)[C@H]21 [lovastatin]

>  <melting point [°C]>
175

$$$$
>  <COMPOUND>
COc1ccccc1[N+](=O)[O-] [o-nitroanisole]

>  <melting point [°C]>
10

$$$$
>  <COMPOUND>
C=C1C[C@@H]2[C@H](CC[C@]3(C)C(=O)CC[C@@H]23)[C@@]2(C)C=CC(=O)C=C12 [Exemestane]

>  <melting point [°C]>
155

$$$$
>  <COMPOUND>
Oc1ccc(-c2ccccc2)cc1 [p-phenylphenol]

>  <melting point [°C]>
167

$$$$

----------
In this section, each of the compounds is paired with its reported melting point.
MEASUREMENT NAME: melting point (°C)

>  <COMPOUND>
N#CCCCCCCC#N [1,6-dicyanohexane]

>  <MEASUREMENT NAME>
melting point

>  <UNIT OF MEASURE>
°C

>  <QUANTITATIVE READOUT>
-3

$$$$
>  <COMPOUND>
O=C(O)c1ccc(Cl)cc1Cl [2,4-dichlorobenzoic_acid]

>  <MEASUREMENT NAME>
melting point

>  <UNIT OF MEASURE>
°C

>  <QUANTITATIVE READOUT>
159

$$$$
>  <COMPOUND>
O=C(O)c1cc(Cl)cc(Cl)c1 [3,5-dichlorobenzoic acid]

>  <MEASUREMENT NAME>
melting point

>  <UNIT OF MEASURE>
°C

>  <QUANTITATIVE READOUT>
186

$$$$
>  <COMPOUND>
Cc1ccc([N+](=O)[O-])cc1 [p-nitrotoluene]

>  <MEASUREMENT NAME>
melting point

>  <UNIT OF MEASURE>
°C

>  <QUANTITATIVE READOUT>
54

$$$$
>  <COMPOUND>
O=C(Nc1ccc2cc(OC(=O)c3ccccc3)ccc2c1)c1ccccc1 [6-[(phenylcarbonyl)amino]naphthalen-2-yl benzoate]

>  <MEASUREMENT NAME>
melting point

>  <UNIT OF MEASURE>
°C

>  <QUANTITATIVE READOUT>
227

$$$$
>  <COMPOUND>
Fc1ccc(N2CCNCC2)cc1 [1-(4-fluorophenyl)piperazine]

>  <MEASUREMENT NAME>
melting point

>  <UNIT OF MEASURE>
°C

>  <QUANTITATIVE READOUT>
32

$$$$
>  <COMPOUND>
C1CC[C@H]2CCCC[C@@H]2C1 [trans-decahydronaphthalene]

>  <MEASUREMENT NAME>
melting point

>  <UNIT OF MEASURE>
°C

>  <QUANTITATIVE READOUT>
-32

$$$$

----------
In this section, each of the molecules is paired with its reported melting point.
MEASUREMENT NAME: melting point (°C)

>  <MOLECULE>
CC(C)(C)C#N [trimethylacetonitrile]

>  <MEASUREMENT NAME>
melting point

>  <QUANTITATIVE READOUT>
17

$$$$
>  <MOLECULE>
Clc1cccc2cc3ccccc3cc12 [1-chloroanthracene]

>  <MEASUREMENT NAME>
melting point

>  <QUANTITATIVE READOUT>
77

$$$$
>  <MOLECULE>
O=C(O)c1cccc([N+](=O)[O-])c1 [3-Nitrobenzoic acid]

>  <MEASUREMENT NAME>
melting point

>  <QUANTITATIVE READOUT>
142

$$$$
>  <MOLECULE>
C=Cc1cccc(C)c1 [3-methylstyrene]

>  <MEASUREMENT NAME>
melting point

>  <QUANTITATIVE READOUT>
-82

$$$$
>  <MOLECULE>
C1=CCCC=CCC1 [1,5-cyclooctadiene]

>  <MEASUREMENT NAME>
melting point

>  <QUANTITATIVE READOUT>
-69

$$$$
>  <MOLECULE>
Cc1c(F)ccc([N+](=O)[O-])c1C [3-fluoro-1,2-dimethyl-6-nitrobenzene]

>  <MEASUREMENT NAME>
melting point

>  <QUANTITATIVE READOUT>
41

$$$$
>  <MOLECULE>
CCOC(=O)/C=C/N(C)C [ethyl 3-(dimethylamino)acrylate]

>  <MEASUREMENT NAME>
melting point

>  <QUANTITATIVE READOUT>
18

$$$$
>  <MOLECULE>
COP(=O)(OC)C(O)C(Cl)(Cl)Cl (stereo unspecified) [Dimethyl (2,2,2-trichloro-1-hydroxyethyl)phosphonate]

>  <MEASUREMENT NAME>
melting point

>  <QUANTITATIVE READOUT>
83

$$$$
>  <MOLECULE>
N#Cc1ccccc1O [2-hydroxybenzonitrile]

>  <MEASUREMENT NAME>
melting point

>  <QUANTITATIVE READOUT>
94

$$$$
>  <MOLECULE>
Cc1c(CN2CCOC(c3ccccc3)C2C)c(=O)n(-c2ccccc2)n1C (stereo unspecified) [morazone]

>  <MEASUREMENT NAME>
melting point

>  <QUANTITATIVE READOUT>
149

$$$$
>  <MOLECULE>
O=C1C=CC(=O)C=C1 [1,4-Benzoquinone]

>  <MEASUREMENT NAME>
melting point

>  <QUANTITATIVE READOUT>
114

$$$$
>  <MOLECULE>
Cc1cccc(C)n1 [2,6-Dimethylpyridine]

>  <MEASUREMENT NAME>
melting point

>  <QUANTITATIVE READOUT>
-6

$$$$
>  <MOLECULE>
Cc1cc(O)c(C(C)C)cc1C1(c2cc(C(C)C)c(O)cc2C)OC(=O)c2ccccc21 [thymolphthalein]

>  <MEASUREMENT NAME>
melting point

>  <QUANTITATIVE READOUT>
252

$$$$
>  <MOLECULE>
O=[N+]([O-])/C=C/c1ccc(Cl)c(Cl)c1 [3,4-dichloro-beta-nitrostyrene]

>  <MEASUREMENT NAME>
melting point

>  <QUANTITATIVE READOUT>
93

$$$$
>  <MOLECULE>
CCCCC(CC)CO (stereo unspecified) [2-Ethylhexan-1-ol]

>  <MEASUREMENT NAME>
melting point

>  <QUANTITATIVE READOUT>
-76

$$$$
>  <MOLECULE>
Cc1ccc([N+](=O)[O-])cc1Cl [2-chloro-4-nitrotoluene]

>  <MEASUREMENT NAME>
melting point

>  <QUANTITATIVE READOUT>
60

$$$$

----------
In this section, each of the molecules is paired with its reported melting point.

>  <MOLECULE>
CC(C)(C)OC(=O)N1CCCCC1=O

>  <melting point / °C>
36

$$$$
>  <MOLECULE>
O=C(CC(=O)c1ccccc1O)c1ccccc1 [benzoyl(2-hydroxybenzoyl)methane]

>  <melting point / °C>
120

$$$$
>  <MOLECULE>
CCC(C)CCCC(=O)N[C@@H](CCN)C(=O)N[C@H](C(=O)N[C@@H](CCN)C(=O)N[C@H]1CCNC(=O)[C@H]([C@@H](C)O)NC(=O)[C@H](CCN)NC(=O)[C@H](CCN)NC(=O)[C@H](CC(C)C)NC(=O)[C@@H](CC(C)C)NC(=O)[C@H](CCN)NC1=O)[C@@H](C)O (stereo partly drawn)

>  <melting point / °C>
210

$$$$
>  <MOLECULE>
ClC(Cl)(Cl)Cl [tetrachloromethane]

>  <melting point / °C>
-23

$$$$
>  <MOLECULE>
Sc1nccs1

>  <melting point / °C>
79

$$$$
>  <MOLECULE>
C=CCSCC=C [diallyl sulfide]

>  <melting point / °C>
-83

$$$$
>  <MOLECULE>
CC(=O)OC1COC(C#N)C(OC(C)=O)C1OC(C)=O (stereo not drawn)

>  <melting point / °C>
134

$$$$
>  <MOLECULE>
Cc1ccc(N)cc1C

>  <melting point / °C>
51

$$$$
>  <MOLECULE>
Cl[C@H]1[C@H](Cl)[C@@H](Cl)[C@@H](Cl)[C@H](Cl)[C@H]1Cl

>  <melting point / °C>
112

$$$$
>  <MOLECULE>
CC(C)(C)Cl [tert-butyl chloride]

>  <melting point / °C>
-26

$$$$
>  <MOLECULE>
O=C(c1ccccc1)c1ccccn1

>  <melting point / °C>
43

$$$$
>  <MOLECULE>
O=C(O)c1cccnc1 [Niacin]

>  <melting point / °C>
237

$$$$
>  <MOLECULE>
NS(=O)(=O)c1c(Cl)cc(Cl)cc1Cl [2,4,6-trichlorobenzenesulfonamide]

>  <melting point / °C>
180

$$$$
>  <MOLECULE>
CC(C)c1cc(C(C)C)cc(C(C)C)c1

>  <melting point / °C>
-7

$$$$
>  <MOLECULE>
COC(=O)c1ccccc1NC(=O)c1ccccc1 [methyl 2-(benzoylamino)benzoate]

>  <melting point / °C>
99

$$$$
>  <MOLECULE>
Cc1ccc(Cl)cc1Cl

>  <melting point / °C>
-13

$$$$
>  <MOLECULE>
Cc1cc(C)c(N=C=S)c(C)c1 [2,4,6-trimethylphenyl isothiocyanate]

>  <melting point / °C>
62

$$$$
>  <MOLECULE>
COC(=O)c1cc(Cl)ccc1[N+](=O)[O-] [methyl 5-chloro-2-nitrobenzoate]

>  <melting point / °C>
49

$$$$
>  <MOLECULE>
COc1ccc(S(N)(=O)=O)cc1 [4-methoxybenzenesulfonamide]

>  <melting point / °C>
112

$$$$
>  <MOLECULE>
BrC=Cc1ccccc1 [beta-bromostyrene, cis trans]

>  <melting point / °C>
-8

$$$$
>  <MOLECULE>
CCCN(CC1CC1)c1c([N+](=O)[O-])cc(C(F)(F)F)cc1[N+](=O)[O-]

>  <melting point / °C>
32

$$$$
>  <MOLECULE>
CCCOC1CCC2(C)C(CC(=O)C3C2CCC2(C)C(OCCC)CCC32)C1 (stereo not drawn)

>  <melting point / °C>
163

$$$$
>  <MOLECULE>
O=C(Cl)c1cc([N+](=O)[O-])cc([N+](=O)[O-])c1 [3,5-Dinitrobenzoyl chloride]

>  <melting point / °C>
69

$$$$
